Hey, just so you know, these numbers are from patent US8569336B2.

Parameter pKi: see the listing below.
# MEASUREMENT_TARGET: purified catalytic domain of recombinant human TACE (rhTACEc) (Homo sapiens, UniProt P78536, N452Q/S266A)
# Construct: 6xHis (C); made in house; host or cells: baculovirus/Hi5 insect cells
# Sequence (P78536 215-477 S266A/N452Q): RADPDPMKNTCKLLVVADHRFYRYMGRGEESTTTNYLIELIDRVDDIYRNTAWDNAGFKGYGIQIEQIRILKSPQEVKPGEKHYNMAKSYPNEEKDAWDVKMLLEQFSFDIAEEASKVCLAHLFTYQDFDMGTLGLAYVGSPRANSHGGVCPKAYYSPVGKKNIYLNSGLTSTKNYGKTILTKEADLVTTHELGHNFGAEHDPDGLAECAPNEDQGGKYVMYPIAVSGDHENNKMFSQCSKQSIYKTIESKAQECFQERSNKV
# EXPERIMENT_SUMMARY: TACE kinetic assay: cleavage of internally quenched peptide substrate TNF-FRET 2 (Ki)
# Type: biochemical
# STUDY_CONDITIONS: TNF-FRET 2 substrate, read-out: Ki
pKi: −log10 of the molar value.

{"columns": ["COMPOUND", "pKi"],
 "data": [
  ["COc1ccc2c(c1)C(=O)N(C[C@@]1(c3cc4nc(N5CCCC5=O)ccc4o3)NC(=O)NC1=O)C2 [Compound 2171]", 9.17],
  ["CN(C)C1CCN(c2ccc3oc(C4(CN5Cc6ccc(Cl)cc6C5=O)NC(=O)NC4=O)cc3n2)CC1 (stereo not drawn) [Compound 1291]", 8.88],
  ["COc1ccc2c(c1F)C(=O)N(C[C@@]1(c3cc4nc(C5(C)NC(=O)NC5=O)ccc4o3)NC(=O)NC1=O)C2 (mixture of isomers) [Compound 1901]", 9.31],
  ["CCN1CCN(c2ccc3oc([C@]4(CN5Cc6ccc(OC)c(F)c6C5=O)NC(=O)NC4=O)cc3n2)CC1 [Compound 1705]", 9.09],
  ["COc1ccc2c(c1)C(=O)N(C[C@@]1(c3cc4cc(C)nc(C)c4o3)NC(=O)NC1=O)C2 [Compound 204]", 9.18],
  ["COc1ccc2c(c1)C(=O)N(C[C@@]1(c3cc4cc(C(=O)NCCN(C)CCN)c(F)cc4o3)NC(=O)NC1=O)C2 [Compound 1279]", 9.00],
  ["COc1ccc2c(c1)C(=O)N(C[C@@]1(c3cc4nc(Nc5c(C)nn(C)c5C)ccc4o3)NC(=O)NC1=O)C2 [Compound 2112]", 9.41],
  ["COc1ccc2c(c1F)C(=O)N(C[C@@]1(c3cc4nc(N5CCCNC5=O)ccc4o3)NC(=O)NC1=O)C2 [Compound 2146]", 9.01],
  ["COc1ccc2c(c1)C(=O)N(C[C@@]1(c3cc4nc(-c5cc[nH]c5)ccc4o3)NC(=O)NC1=O)C2 [Compound 1900]", 9.24],
  ["COc1ccc2c(c1)C(=O)N(C[C@@]1(c3cc4nc(-c5cnc(N(C)C)nc5)ccc4o3)NC(=O)NC1=O)C2 [Compound 2152]", 9.43],
  ["COc1ccc2c(c1F)C(=O)N(C[C@@]1(c3cc4cnc(Cl)cc4o3)NC(=O)NC1=O)C2 [Compound 2217]", 9.22],
  ["COc1ccc2c(c1)C(=O)N(C[C@@]1(c3cc4cc(CNCCN(C)C)ccc4o3)NC(=O)NC1=O)C2 [Compound 2177]", 9.15],
  ["COc1ccc2c(c1)C(=O)N(C[C@@]1(c3cc4cc(NC(C)=O)cnc4o3)NC(=O)NC1=O)C2 [Compound 2295]", 8.88],
  ["COc1ccc2c(c1)C(=O)N(C[C@@]1(c3cc4ccc(C(=O)NCCN5CCCC5)cc4o3)NC(=O)NC1=O)C2 [Compound 2418]", 9.12],
  ["COc1ccc2c(c1)C(=O)N(C[C@@]1(c3cc4nc(Nc5ncccn5)ccc4o3)NC(=O)NC1=O)C2 [Compound 2169]", 9.24]
]}

###

Below, each entry is listed with its recorded log10 AUC.
# EXPERIMENT_SUMMARY: Area under the curve determinations of plasma levels in rats (rrAUC), oral 10 mg/kg
# Format: in vivo
# STUDY_CONDITIONS: rat, plasma 0.5-6 h post-dosing, read-out: RR AUC (rapid rat AUC, rrAUC)
MEASURED_ENDPOINT: log10 AUC (log10 of the value in µM·h)

{"columns": ["COMPOUND", "log10 AUC"],
 "data": [
  ["COc1ccc2c(c1Cl)C(=O)N(C[C@@]1(c3cc4ncccc4o3)NC(=O)NC1=O)C2 [Compound 2153]", 0.25],
  ["COc1ccc2c(c1)C(=O)N(C[C@@]1(c3cc4nc(NC5CCN(C)CC5)ccc4o3)NC(=O)NC1=O)C2 [Compound 2141]", 0.43],
  ["COc1ccc2c(c1)C(=O)N(C[C@@]1(c3cc4ccccc4o3)NC(=O)NC1=O)C2 [Compound 2214]", -0.71],
  ["CC[C@@H]1CN(c2ccc3oc([C@]4(CN5Cc6ccc(OC)cc6C5=O)NC(=O)NC4=O)cc3n2)CCN1 [Compound 2124]", -1.85],
  ["COc1ccc2c(c1)C(=O)N(C[C@@]1(c3cc4nc(N(c5cccnc5)C5CCNCC5)ccc4o3)NC(=O)NC1=O)C2 [Compound 2145]", -1.07],
  ["COc1ccc2c(c1)C(=O)N(C[C@@]1(c3cc4cnc(C(F)(F)F)cc4o3)NC(=O)NC1=O)C2 [Compound 2269]", 1.29],
  ["COc1ccc2c(c1)C(=O)N(C[C@@]1(c3cc4cc(-n5cncn5)ccc4o3)NC(=O)NC1=O)C2 [Compound 2196]", 0.85],
  ["COc1ccc2c(c1)C(=O)N(C[C@@]1(c3cc4nc(Nc5onc(C)c5C)ccc4o3)NC(=O)NC1=O)C2 [Compound 2132]", -0.84],
  ["COc1ccc2c(c1)C(=O)N(C[C@@]1(c3cc4cnc(-c5cccnc5)cc4o3)NC(=O)NC1=O)C2 [Compound 2232]", 0.35],
  ["COc1ccc2c(c1)C(=O)N(C[C@@]1(c3cc4cc(-c5ccc(O)cc5)ncc4o3)NC(=O)NC1=O)C2 [Compound 2243]", -1.57],
  ["COc1ccc2c(c1)C(=O)N(C[C@@]1(c3cc4cc(CNCCN(C)C)ccc4o3)NC(=O)NC1=O)C2 [Compound 2177]", -1.16],
  ["COc1ccc2c(c1)C(=O)N(C[C@@]1(c3cc4cc(-c5cccnc5)cnc4o3)NC(=O)NC1=O)C2 [Compound 2254]", 0.25],
  ["COc1ccc2c(c1)C(=O)N(C[C@@]1(c3cc4nc(N5CCOCC5)ccc4o3)NC(=O)NC1=O)C2 [Compound 2163]", 0.56],
  ["COc1ccc2c(c1)C(=O)N(C[C@@]1(c3cc4cc(-c5cccnc5)ccc4o3)NC(=O)NC1=O)C2 [Compound 2195]", 0.06],
  ["COc1ccc2c(c1)C(=O)N(C[C@@]1(c3cc4nc(-n5cccn5)ccc4o3)NC(=O)NC1=O)C2 [Compound 2165]", 1.32],
  ["COc1ccc2c(c1)C(=O)N(C[C@@]1(c3cc4ccc(-c5nnc(C)o5)cc4o3)NC(=O)NC1=O)C2 [Compound 2190]", -0.38],
  ["COc1ccc2c(c1)C(=O)N(C[C@@]1(c3cc4nc(-c5cnn(CC(C)C)c5)ccc4o3)NC(=O)NC1=O)C2 [Compound 2115]", -0.46],
  ["COc1ccc2c(c1)C(=O)N(C[C@@]1(c3cc4cnc(-c5ccccc5F)cc4o3)NC(=O)NC1=O)C2 [Compound 2234]", 2.10],
  ["COc1ccc2c(c1)C(=O)N(C[C@@]1(c3cc4nc(Nc5cnccn5)ccc4o3)NC(=O)NC1=O)C2 [Compound 2129]", 0.12],
  ["COc1ccc2c(c1)C(=O)N(C[C@@]1(c3cc4nc(Nc5ccnn5C)ccc4o3)NC(=O)NC1=O)C2 [Compound 2131]", -0.59],
  ["COc1ccc2c(c1)C(=O)N(C[C@@]1(c3cc4cc(-c5cc(N)n(C)n5)ccc4o3)NC(=O)NC1=O)C2 [Compound 2247]", -0.43],
  ["COc1ccc2c(c1)C(=O)N(C[C@@]1(c3cc4cnc(C)cc4o3)NC(=O)NC1=O)C2 [Compound 2258]", 1.28]
]}

###

Each item that follows carries a reported AUC.
# EXPERIMENT_SUMMARY: Area under the curve determinations of plasma levels in rats (rrAUC), oral 10 mg/kg
# Type: in vivo
# STUDY_CONDITIONS: rat, plasma 0.5-6 h, read-out: RR AUC (rapid rat AUC, rrAUC)

{"columns": ["SMILES_RECORD", "AUC, µM·h"],
 "data": [
  ["COc1ccc2c(c1F)C(=O)N(C[C@@]1(c3cc4ncc(F)cc4o3)NC(=O)NC1=O)C2", 14.6],
  ["COc1ccc2c(c1F)C(=O)N(C[C@@]1(c3cc4nc(N)ccc4o3)NC(=O)NC1=O)C2", 0.351],
  ["COc1ccc2c(c1F)C(=O)N(C[C@@]1(c3cc4nc(-n5cccn5)ccc4o3)NC(=O)NC1=O)C2", 8]
]}

###

# MEASUREMENT_TARGET: purified catalytic domain of recombinant human TACE (rhTACEc) (Homo sapiens, UniProt P78536, N452Q/S266A)
# Construct: 6xHis (C); made in house; host or cells: baculovirus/Hi5 insect cells
# EXPERIMENT_SUMMARY: TACE kinetic assay: cleavage of internally quenched peptide substrate TNF-FRET 2 (Ki)
# Assay type: biochemical
# STUDY_CONDITIONS: TNF-FRET 2 substrate, read-out: Ki
MEASURED_ENDPOINT: Ki (nM)

{"columns": ["SMILES_RECORD", "ASSAY_VALUE"],
 "data": [
  ["COc1ccc2c(c1)C(=O)N(C[C@@]1(c3cc4ccc(C(N)=O)cc4o3)NC(=O)NC1=O)C2", 0.49],
  ["COc1ccc2c(c1F)C(=O)N(C[C@@]1(c3cc4nc(-c5ccnc(N6CCNCC6)c5)ccc4o3)NC(=O)NC1=O)C2", 0.24],
  ["COC(=O)c1ccc2oc([C@]3(CN4Cc5ccc(OC)cc5C4=O)NC(=O)NC3=O)cc2n1", 0.13],
  ["COc1ccc2c(c1)C(=O)N(C[C@@]1(c3cc4nc(N(CCN(C)C)c5cn[nH]c5)ccc4o3)NC(=O)NC1=O)C2", 0.86],
  ["COc1ccc2c(c1F)C(=O)N(C[C@@]1(c3cc4nc(-c5cccnc5)ccc4o3)NC(=O)NC1=O)C2", 0.232],
  ["CCNc1nnc(-c2ccc3oc([C@]4(CN5Cc6ccc(OC)cc6C5=O)NC(=O)NC4=O)cc3n2)o1", 0.77],
  ["COc1ccc2c(c1)C(=O)N(C[C@@]1(c3cc4cnc(-c5cncnc5)cc4o3)NC(=O)NC1=O)C2", 0.763]
]}
